melting point values for the compounds below.
Endpoint label: melting point

# Compound, Endpoint label, Test value
data = [
    ("CC(=O)NCC#CCn1ccnc1", "melting point", "93 to 95 °C"),
    ("O=c1[nH]c2ccc(F)cc2s1", "melting point", "188 to 189 °C"),
    ("COc1cccc2c1C(=O)c1c(OC)cc(Cc3ccccc3C(O)=S)cc1C2=O", "melting point", "235 to 237 °C"),
    ("COc1cccc2cc(C(=O)c3ccc(Cl)c(S(=O)(=O)Cl)c3)oc12", "melting point", "143 to 145 °C"),
    ("CCCCC1NCCc2ccc(C(=O)N[C@@H](Cc3cc(F)cc(F)c3)[C@H](O)CNCc3cccc(CC)c3)cc21 (stereo not given in full)", "melting point", "121 to 124 °C"),
    ("COCc1cc(-n2nc(C(F)(F)F)cc2-c2ccc(-c3ccco3)cc2)ccc1S(C)(=O)=O", "melting point", "142 to 143 °C"),
    ("O=C(c1cccnc1)n1nc(-c2ccc(Br)cc2)cc1C(F)(F)F", "melting point", "150 to 152 °C"),
    ("COc1cc(C=CC(=O)C=Cc2cc(OC)cc(OC)c2)cc(OC)c1", "melting point", "124 to 126 °C"),
    ("O=C(Nc1cccnn1)N1CCN(c2nccc(-c3ccc(F)cc3F)n2)CC1", "melting point", "184 to 185 °C"),
    ("Cc1ccc(C(=O)OC2CCC3(C)C(=CCC4C3CCC3(C)C(=NO)CCC43)C2)cc1 (stereo not given)", "melting point", "135 to 139 °C"),
    ("COC(=O)CNC(=O)COc1ccc(C(C)=O)cc1", "melting point", "120 to 121 °C"),
    ("CCOC(=O)c1ccc(-c2ccc(OCC(O)CO)c(-c3ccc4c(c3)C(C)(C)CCC4(C)C)c2)cc1 (stereo not given)", "melting point", "56 °C"),
    ("OC1(c2cccn2Cc2ccccc2F)CCN(CCCc2noc3cc(F)ccc23)CC1", "melting point", "100 to 104 °C"),
    ("COC(=O)CCCCCOc1ccc(NC(=O)CO)cc1", "melting point", "91.5 to 94 °C"),
    ("CC(C)c1cc(C=CC(=O)Nc2cccc(C(=O)O)c2)oc1C(C)C", "melting point", "220 to 222 °C"),
    ("CCCCc1ncc(CSC(CC(=O)O)C(=O)O)n1Cc1ccc(C(=O)O)cc1 (stereo not given)", "melting point", "140 °C"),
    ("CCOC(=O)c1c[nH]nc1NCc1ccc(OC)c(OC2CCCC2)c1", "melting point", "102 to 104 °C"),
    ("Cc1cc(F)c2ncc(C(=O)NNc3ccc(Cl)cc3)c(O)c2c1", "melting point", "256 to 258 °C"),
    ("CCOc1ccc2c(c1)n(C1CCCCC1)c(=O)n2S(=O)(=O)c1ccc(C(=O)NC(C)(C)CN(C)C)cc1OC", "melting point", "161 °C"),
    ("FC(F)Sc1nnc(-c2cnccn2)s1", "melting point", "113 to 115 °C"),
]

* * *

melting point values for the compounds below.
Endpoint label: melting point

# Compound, Test value
rows = [
    ("CC(=O)NC(CC=Cc1ccccc1)(COC(C)=O)COC(C)=O", "88 to 90 °C"),
    ("CC(C)Cn1c(=O)n(C)c(=O)c2c(Sc3ccc([N+](=O)[O-])cn3)c(Cc3cccc4ccccc34)sc21", "200 to 201 °C"),
    ("CS(=O)(=O)N(Cc1ccccc1)c1ccc(C(=O)CBr)cc1", "101 to 103 °C"),
    ("CCCc1ccc(Cc2cccc(NC(N)=O)c2)n1CCC", "123 to 126 °C"),
    ("CCOC(=O)C(=CC=C(SC)C(=O)c1ccccc1)N(C)C", "78 °C"),
    ("CC(=O)Nc1cccc(-c2[nH]c3cccc4c3c2CCNC4=O)c1", "300 to 302 °C"),
    ("CN(C)C(=O)C1CCC2C(=O)N(c3ccccc3)C(=O)N12 (stereo not drawn)", "172 to 174 °C"),
    ("CCP(=O)(O)CC(=O)CN", "189 to 192 °C"),
    ("Cn1cc(Cl)cnc1=O", "210 °C"),
    ("COc1ccc(C(O)Cc2nccnc2C)cc1 (stereo not drawn)", "89 to 91 °C"),
    ("Cn1nc(-c2ccc([N+](=O)[O-])cc2)c2ccccc2c1=O", "200 to 202 °C"),
    ("O=C1C(=CO)Cc2c1cnn2Cc1ccccc1", "171 to 172 °C"),
    ("O=c1c2ccccc2cc2n1CCCCC2", "99 to 101 °C"),
    ("CC(=O)NC(c1ccc(Cl)cc1)(c1ccc2c(c1)c(-c1nc(-c3ccccc3)cs1)cc(=O)n2C)c1cncn1C (stereo not drawn)", "244 °C"),
    ("O=C(O)c1ccc(OCCn2ccnc2)c(Cl)c1", "204 °C"),
    ("Cc1nc2ccc(N)cn2c(=O)c1CCCl", "185 °C"),
    ("CCC=C(Cc1ccc(Cl)cc1Cl)n1cncn1", "127 °C"),
    ("O=Cc1csc(Oc2ccccc2)n1", "63 °C"),
    ("N#Cc1c(Cl)csc1NC=O", "241 °C"),
    ("CC12CCC(C(=Cc3ccc(C(=O)O)cc3)C1=O)C2(C)C (stereo not drawn)", "240 °C"),
    ("CC(C)CCc1cc(C(O)=S)cc(N)c1C(=O)c1ccccc1", "141 to 142 °C"),
    ("NCc1nnc2n1-c1ccc(Cl)cc1C(c1ccccc1F)=CC2", "188 to 190 °C"),
    ("Oc1cnc2c(c1)CCC(c1ccc(Cl)c(Cl)c1)O2 (stereo not drawn)", "218 to 219 °C"),
]

* * *

# Compound, melting point
measured = [
    ("COc1ccc(C(=O)COc2ccccc2Br)cc1", "104 °C"),
    ("NCc1ccccc1C1CCN(c2nc3c(cc2F)c(=O)c(C(=O)O)cn3C2CC2)C1 (stereo not given)", "226 to 228 °C"),
    ("CS(=O)(=O)c1cccc(C(=O)Nc2ccc(-n3nc(C(F)(F)F)cc3C3CC3)cc2)c1", "178 to 184 °C"),
    ("O=c1[nH]c2cc(Cl)ccc2c(O)c1SC/C=C\\c1ccccc1", "> 300 °C"),
    ("C#CC(=NOC)C(=O)OC", "82 to 83 °C"),
    ("COc1ccc(C(Sc2c(N)ccc3ccccc23)C(O)C(=O)O)cc1 (stereo not given)", "143 to 145 °C"),
    ("COc1cc2c(cc1OC)CN(CCc1ccc(NC(=O)c3cccc4c(=O)c5cccc(OC)c5[nH]c34)c(C)c1)CC2", "200 to 201 °C"),
    ("Cn1c(C(N)=O)c(-c2ccc(F)cc2)c2cccnc2c1=O", "329 to 330 °C"),
    ("NC1Cc2cccc3c2C(C1)CN3C(=O)c1ccccc1 (stereo not given)", "118 to 120 °C"),
    ("O=C(O)COc1ccc(SCc2cc(-c3ccc(C(F)(F)F)cc3)on2)c2c1CCCC2", "167 to 170 °C"),
]

* * *

Endpoint label: melting point

# Compound, Endpoint label, Test value
measured = [
    ("CCCCOc1c(CNC(=O)OC(C)(C)C)n(CC(C)C)c(=O)c2ccc(-c3ccccc3)cc12", "melting point", "155 to 159 °C"),
    ("O=C1NC(=O)C(c2sccc2Br)O1 (configuration not stated)", "melting point", "138 to 139 °C"),
    ("CSc1nnc(C(C)(C)C)[nH]1", "melting point", "191 to 194 °C"),
    ("COc1ccc(C(=O)NN=C(N)N)c(F)c1", "melting point", "220 °C"),
    ("Clc1cccc(Nc2ncnc3[nH]c(-c4ccccn4)cc23)c1", "melting point", "> 300 °C"),
    ("COc1cc(C)cc(OC)c1CCCCCNC(=O)[C@@H](CCCCN)NC(=O)c1cc2ccccc2n1CC(=O)O", "melting point", "173 °C"),
    ("COc1cc(Br)nc(NC(=O)NS(=O)(=O)c2cccc3c2SCC3)n1", "melting point", "238 to 240 °C"),
    ("Nc1nc2c(OCCOc3nccnc3N3CCNCC3)cccc2o1", "melting point", "138 to 140 °C"),
    ("C1=C(c2ccc3c(c2)OCCO3)CCC(N2CCN(Cc3ccccc3)CC2)C1 (configuration not stated)", "melting point", "132 to 133 °C"),
    ("CC(C)(C)CNC(=NC#N)Nc1cccnc1", "melting point", "214 to 215 °C"),
    ("CN(C)c1nc(O)ns1", "melting point", "142 °C"),
    ("COc1c(C)c(N2CCN(c3ccc(F)cc3)CC2)c(C)c2c1OC(C)(C)C2", "melting point", "137 to 139 °C"),
    ("CC1COc2ccccc2O1 (configuration not stated)", "melting point", "86 to 87 °C"),
    ("CCCc1nc(-n2cccc2C(=O)C(F)(F)F)c(C(=O)OC)[nH]1", "melting point", "158 to 159 °C"),
    ("CC(=O)OCC1CCCN(C(=O)c2ccc(NC(=O)c3ccccc3C)cc2)c2ccccc21 (configuration not stated)", "melting point", "155 to 156 °C"),
    ("CC(C)(C)OC(=O)N[C@H]1C=C[C@@H](C(=O)O)C1", "melting point", "153 to 155 °C"),
    ("CCc1nccn1-c1nc(-c2ccc(Cl)cc2)c(CCC(=O)O)o1", "melting point", "197 to 199 °C"),
    ("O=C(O)C(Cc1ccc(C(F)(F)F)cc1Br)C(=O)O", "melting point", "80 to 82 °C"),
    ("CC(C)(C)OC(=O)Nc1sc(-c2cncc(F)c2)nc1I", "melting point", "148 to 149 °C"),
    ("CCOCc1nc2c(N)nc3cc(Br)cnc3c2n1CC(C)C", "melting point", "163 to 164 °C"),
    ("CC12CCC3c4cc(OCC(F)(F)F)c(O)cc4CCC3C1CCC2O (configuration not stated)", "melting point", "167 to 168 °C"),
    ("Cn1nnc(CC[C@H]2CC[C@@H](c3ccc(F)cc3)N2S(=O)(=O)c2ccc(Cl)cc2)n1 (racemic)", "melting point", "122 °C"),
]
